src = ChEMBL document CHEMBL1275259

- Test system: Mycobacterium tuberculosis
- measurement-protocol: Antimicrobial activity against extensively drug-resistant Mycobacterium tuberculosis isolate 16
- Assay type: functional
metric-name: MIC (µg/mL)

{"columns": ["structure-smiles", "value-observed"],
 "data": [
  ["COc1c(N2C[C@@H]3CCCN[C@@H]3C2)c(F)cc2c(=O)c(C(=O)O)cn(C3CC3)c12", 1],
  ["CO[C@H]1/C=C/O[C@@]2(C)Oc3c(C)c(O)c4c(O)c(c(/C=N/N5CCN(C)CC5)c(O)c4c3C2=O)NC(=O)/C(C)=C\\C=C\\[C@H](C)[C@H](O)[C@@H](C)[C@@H](O)[C@@H](C)[C@H](OC(C)=O)[C@@H]1C", 8],
  ["COc1c(N2CC[C@@H](C(C)(C)N)C2)c(F)cc2c(=O)c3c(=O)[nH]sc3n(C3CC3)c12", 0.5],
  ["NNC(=O)c1ccncc1", 1]
]}

---

- tested-system: DNA gyrase subunit A (Mycobacterium tuberculosis, UniProt P9WG47, A90V)
- measurement-protocol: Inhibition of DNA supercoiling activitysof Mycobacterium tuberculosis DNA gyrase subunit A A90V mutant

{"columns": ["compound", "qualifier-sign", "IC50 [µM]"],
 "data": [
  ["COc1c(N2CCNC(C)C2)c(F)cc2c(=O)c(C(=O)O)cn(C3CC3)c12 (stereo not drawn)", "=", 28],
  ["COc1c(N2CC[C@@H](C(C)(C)N)C2)c(F)cc2c(=O)c3c(=O)[nH]sc3n(C3CC3)c12", "=", 4.6],
  ["C[C@H]1COc2c(N3CCN(C)CC3)c(F)cc3c(=O)c(C(=O)O)cn1c23", ">", 300]
]}

---

- Tested on: Mycobacterium tuberculosis
- measurement-protocol: Antimicrobial activity against multidrug-resistant Mycobacterium tuberculosis isolate 19
- Type: functional
metric-name: MIC (µg/mL)

{"columns": ["structure-smiles", "metric-name", "quantity-unit", "value-observed"],
 "data": [
  ["COc1c(N2CC[C@@H](C(C)(C)N)C2)c(F)cc2c(=O)c3c(=O)[nH]sc3n(C3CC3)c12", "MIC", "µg/mL", 0.03],
  ["NNC(=O)c1ccncc1", "MIC", "µg/mL", 2],
  ["COc1c(N2C[C@@H]3CCCN[C@@H]3C2)c(F)cc2c(=O)c(C(=O)O)cn(C3CC3)c12", "MIC", "µg/mL", 0.03]
]}
